Below, each entry is listed alongside its reported Ratio.
# Tested on: Plasmodium falciparum
# Test protocol: MMV: Compounds (1uM) were screened in a 72hr growth assay monitored by flow cytometry both in the presence and absence of supplemental isopentenyl pyrophosphate (IPP) 200uM. Compounds which fail to show anti-malarial activity when chemically rescued by IPP are therefore specific to the apicoplast. The values are expressed as the ratio of the corresponding activity with and without IPP, respectively.
# Type: functional, W2

| Molecule | Target entity | Ratio |
| --- | --- | --- |
| COc1ccc2nc(N)nc(C)c2c1 | Plasmodium falciparum | 0.8974 |
| OC(Cn1nnc2ccccc21)Cn1c2ccc(Br)cc2c2cc(Br)ccc21 (stereo unspecified) | Plasmodium falciparum | 0.9531 |
| COc1cc(SC)ccc1C(=O)N1CCCC(C)C1 (stereo unspecified) | Plasmodium falciparum | 0.6888 |
| FC(F)(F)c1ccc(Nc2nnnc3ccccc23)cc1 | Plasmodium falciparum | 1.052 |
| CCOC(=O)c1c(C)n(-c2ccc(Cl)cc2)c2ccc(OC(=O)C=Cc3ccccc3)cc12 | Plasmodium falciparum | 1.121 |
| COc1ccc(CNC2CCN(c3ccc(NC(=O)c4cccc(Cl)c4)cc3)CC2)cc1OC | Plasmodium falciparum | 1.145 |
| c1ccc(Cn2c(N=Nc3c(Nc4ccccc4)ccc4ccccc34)nc3ccccc32)cc1 | Plasmodium falciparum | 0.863 |
| CC(C)OCc1cc(CN2CCN(c3cccc(Cl)c3)CC2)c(O)c2ncccc12 | Plasmodium falciparum | 1.015 |
| COc1cccc(Cn2c(Oc3ccccc3)nc3c2c(=O)n(C)c(=O)n3C)c1 | Plasmodium falciparum | 0.9255 |
| O=c1cc(NC2CCN(CCCc3ccccc3)CC2)c2cc(Cl)ccc2o1 | Plasmodium falciparum | 1.019 |
| CCOc1cc2c(cc1OCC)C(c1cc(Cl)c(O)c(OCC)c1)NCC2 (stereo unspecified) | Plasmodium falciparum | 0.8824 |

###

# System: Plasmodium falciparum
# Test protocol: MMV: Compounds (1uM) were screened in a 72hr growth assay monitored by flow cytometry both in the presence and absence of supplemental isopentenyl pyrophosphate (IPP) 200uM. Compounds which fail to show anti-malarial activity when chemically rescued by IPP are therefore specific to the apicoplast. The values are expressed as the ratio of the corresponding activity with and without IPP, respectively.
# Assay type: functional, W2
// returns FALSE unless Ratio is strictly below 1, in which case TRUE

| Molecule | Assigned label |
| --- | --- |
| O=C(Nc1cccc(-c2nc3ccccc3[nH]2)c1)c1cccc(NC(=O)c2ccco2)c1 | TRUE |
| CCCCCCc1cc2cc(-c3csc(C=Cc4ccccc4)n3)c(=O)oc2cc1O | TRUE |
| Cc1ccc2nc(C)cc(Nc3cccc(C(F)(F)F)c3)c2c1.Cl | TRUE |
| O=C(Nc1ccccc1O)c1ccc(Oc2cccc(C(=O)Nc3ccccc3O)c2)cc1 | TRUE |
| C[n+]1c2ccccc2nc2ccc(NCCO)cc21 | TRUE |
| CCCc1c(C)nc2ccccc2c1O | TRUE |
| O=C1CC(O)(C(F)(F)C(F)(F)F)Oc2ccccc21 (stereo unspecified) | TRUE |
| OC(CNC1CCCCC1)Cn1c2ccc(I)cc2c2cc(I)ccc21 (stereo unspecified) | FALSE |
| Cc1ccc(Cl)cc1N1CCN(CCCNC(=O)C2CCN(c3nc4ccccc4[nH]3)CC2)CC1 | TRUE |
| Cc1ccc(-c2cc3c(SCC(=O)Nc4cc(C(F)(F)F)ccc4Cl)nccn3n2)cc1 | TRUE |
| Cc1ccc(N2C(=O)C3C(C2=O)C2(c4ccccc4)C(=O)C3(c3ccccc3)C(c3ccccc3)=C2c2ccccc2)cc1 (stereo unspecified) | FALSE |
| O=C(CSc1ccc2nnc(-c3cccc(F)c3)n2n1)Nc1ccc2c(c1)OCO2 | TRUE |
| COc1ccccc1CNC(=O)CCn1c(=O)[nH]c2ccsc2c1=O | FALSE |
| CCN1CCCC1CNc1[nH]cnc2c3cc(Cl)ccc3nc1-2 (stereo unspecified) | TRUE |
| CC(C)(C)c1ccc(C(=O)Nc2nc3ccccc3s2)cc1 | TRUE |
| O=C(Nc1ccc(CN2CCOCC2)cc1)c1ccc(-c2ccc(Br)cc2)o1 | TRUE |
